Target: cyclo-oxygenase (Ovis aries, UniProt P05979)
Construct: microsomal enzyme fraction, obtained from a 220,000 x g precipitate of a homogenate of sheep vesicular glands; from tissue; host or cells: sheep vesicular glands (lyophilized microsomal fraction, 220,000 x g precipitate)
Sequence (P05979 25-600): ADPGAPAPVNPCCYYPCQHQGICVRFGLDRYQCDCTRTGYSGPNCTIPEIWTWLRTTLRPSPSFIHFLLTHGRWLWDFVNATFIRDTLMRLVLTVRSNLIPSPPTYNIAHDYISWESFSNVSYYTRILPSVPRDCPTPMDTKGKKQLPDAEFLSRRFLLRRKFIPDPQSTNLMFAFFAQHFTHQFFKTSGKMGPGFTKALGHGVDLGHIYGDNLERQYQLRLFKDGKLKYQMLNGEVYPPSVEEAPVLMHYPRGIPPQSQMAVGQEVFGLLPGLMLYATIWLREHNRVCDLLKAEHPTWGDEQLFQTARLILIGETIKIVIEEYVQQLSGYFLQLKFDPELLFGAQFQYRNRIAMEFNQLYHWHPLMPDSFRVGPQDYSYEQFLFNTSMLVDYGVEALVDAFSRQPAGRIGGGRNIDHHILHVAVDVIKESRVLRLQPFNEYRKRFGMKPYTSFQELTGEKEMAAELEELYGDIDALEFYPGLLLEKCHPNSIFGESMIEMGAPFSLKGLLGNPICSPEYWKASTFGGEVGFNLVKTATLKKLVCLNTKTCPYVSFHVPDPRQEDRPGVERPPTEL
Experiment: cyclo-oxygenase assay (oxygen consumption, Clark oxygen electrode)
Format: biochemical, sheep
Conditions: sheep vesicular gland microsomal enzyme, 8,11,14-eicosatrienoic acid substrate, 25° C., pH 8.0; read-out: I50 (concentration of inhibitor which gives 50% inhibition of cyclo-oxygenase activity)
Catalogue of IC50 readings, one per entry.
assayEndpoint: IC50 (µM)

compound="CCCCCCCCCC(=O)c1ccc(O)c(C(=O)Nc2ccc([N+](=O)[O-])cc2)c1 [AN-10, 5-n-decanoyl-4'nitrosalicylanilide]" observedresult=180
compound=CCCCCCCC(=O)c1ccc(O)c(C(=O)Nc2cccc(C(F)(F)F)c2)c1 observedresult=240
